assay: E. coli acrAB mutant growth effects, primary screen, E. coli filamentation inducers, strain DRC39, OD650, 48 h (AID 1179);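 also: screen aims at cell division blockers that make cells filament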; settings: E. coli DRC39 delta-acrAB growth, higher = more signal, called active from +8 up or from −8 down
Activity calls are given as the source filed them.
ASSAY METRIC: z-score

For this compound ( `COc1ccc(COC(=O)NN=C2C[C@@H](O)[C@@H](O)[C@@H]3[C@@H]4C(=O)N(C(C)(C)C)C(=O)[C@@H]4CC[C@H]23)cc1` ), measured z-score is 0.0442 (inactive)

For this compound ( `CC(C)=NOCc1ccc(-c2cn([C@@H]3COC[C@H]3O)nn2)cc1` ), measured z-score is -0.0038 (inactive)

For this compound ( `C[C@@H](ON=C1[C@H]2CCn3c(=O)n(-c4ccccc4)c(=O)n3[C@H]2[C@H](O)[C@@H]2O[C@H]12)c1cn([C@H](CO)Cc2ccccc2)nn1` ), measured z-score is 1.12 (inactive)

For this compound ( `CCN1C(=O)[C@H]2[C@H]3[C@H](O)[C@H](O)CC(=NNC(=O)OCc4ccc(OC)cc4)[C@H]3CC[C@H]2C1=O` ), measured z-score is 0.559 (inactive)

For this compound ( `CO[C@@H]1C=CCC(=O)N2CCC[C@H]2C(=O)OC[C@H](C)C(=O)OC[C@H]1C` ), measured z-score is 0.858 (inactive)
